Parameter AAPH inhibition (%, at 100 µM): see the listing below.
# Assay remarks: Inhibition of linoleic acid peroxidation (AAPH-induced)
# Description: Our group evaluated the in vitro study as reported previously. Ten 16 mM sodium linoleate solution microliters were added to the UV cuvette containing 93 µL of a 0.05 M phosphate buffer, pH 7.4, and 10 µL of the tested compounds (final concentration 100 µM). The oxidation reaction started at 37 °C under air by adding 50 µL of the free radical initiator AAPH (40 mM). Oxidation was carried out and monitored at 234 nm. DMSO under the same conditions was used as a negative control. […]
Write the number in % without appending the unit.

Consider the reported AAPH inhibition (%, at 100 µM) for these molecules:
Molecule	Units symbol	Assay result
COC(=O)CCCNC(=O)/C=C/c1ccc(OCc2ccc(Br)cc2)cc1 [Compound 11b]	%	19
CCOC(=O)CNC(=O)/C=C/c1ccc(F)cc1 [Compound 27a]	%	78
CCOC(=O)CNC(=O)/C=C/c1ccc(O)c(OC)c1 [Compound 24a]	%	82
COC(=O)CC[C@H](NC(=O)/C=C/c1ccc(OC)c(OC)c1)C(=O)OC [Compound 18c]	%	74
COC(=O)CCCNC(=O)/C=C/c1ccc(O)cc1 [Compound 25b]	%	66

Attention now turns to another entry.
AAPH inhibition (%, at 100 µM) for COC(=O)CCCNC(=O)C=Cc1ccccc1 [Compound 22b] is 24

* * *

# Test target: ovine COX-2 (Ovis aries, UniProt P79208)
# Construct: purchased Cayman (USA)
# Sequence (P79208 17-603): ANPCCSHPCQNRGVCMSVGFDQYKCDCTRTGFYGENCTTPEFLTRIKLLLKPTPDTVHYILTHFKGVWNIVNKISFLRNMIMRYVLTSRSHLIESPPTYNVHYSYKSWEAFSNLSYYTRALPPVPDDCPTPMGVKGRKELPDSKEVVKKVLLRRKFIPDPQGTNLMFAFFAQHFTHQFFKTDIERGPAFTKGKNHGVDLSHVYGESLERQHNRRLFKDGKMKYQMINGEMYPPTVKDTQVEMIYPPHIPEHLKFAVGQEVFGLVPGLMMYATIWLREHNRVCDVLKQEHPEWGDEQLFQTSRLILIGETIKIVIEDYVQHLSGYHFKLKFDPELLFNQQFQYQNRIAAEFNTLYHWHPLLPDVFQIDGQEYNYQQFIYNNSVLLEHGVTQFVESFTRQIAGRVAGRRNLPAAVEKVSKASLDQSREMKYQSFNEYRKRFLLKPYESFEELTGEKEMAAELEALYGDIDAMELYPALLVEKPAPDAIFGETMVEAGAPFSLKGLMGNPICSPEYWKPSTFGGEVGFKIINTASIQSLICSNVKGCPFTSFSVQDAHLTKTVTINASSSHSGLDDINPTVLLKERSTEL
# Assay remarks: Cyclooxygenase-2 inhibition study
# Format: biochemical
Parameter inhibition at 100 µM: see the listing below.
Write the number in % without appending the unit.

Consider the reported inhibition at 100 µM for these molecules:
Molecule	Measured endpoint	Assay result
O=C(O)/C=C/c1ccc(O)c(O)c1 [Compound 28, trans-caffeic acid]	inhibition at 100 µM	6
O=C(O)/C=C/c1ccc(C(F)(F)F)cc1 [Compound 13]	inhibition at 100 µM	32
O=C(O)/C=C/c1ccc(OCc2ccc(Br)cc2)cc1 [Compound 11]	inhibition at 100 µM	17
COc1ccc(OC)c(/C=C/C(=O)O)c1 [Compound 19]	inhibition at 100 µM	28

inhibition at 100 µM for COc1ccc(/C=C/C(=O)O)cc1OC [Compound 18] is 19

inhibition at 100 µM for CCOC(=O)CNC(=O)/C=C/c1ccc(O)c(O)c1 [Compound 28a] is 17

inhibition at 100 µM for COC(=O)CCC(NC(=O)C=Cc1ccc(O)c(O)c1)C(=O)OC (stereo not shown) [Compound 28c] is 19

inhibition at 100 µM for O=C(O)/C=C/c1ccccc1 [Compound 22, cinnamic acid] is 4

* * *

Parameter AAPH inhibition (%, at 100 µM): see the listing below.
# Assay remarks: Inhibition of linoleic acid peroxidation (AAPH-induced)
Write the number in % without appending the unit.

Consider the reported AAPH inhibition (%, at 100 µM) for these molecules:
Molecule	AAPH inhibition (%, at 100 µM) [%]
CCOC(=O)CNC(=O)/C=C/c1cccs1 [Compound 21a]	15
Cc1c(C)c2c(c(C)c1O)CCC(C)(C(=O)O)O2 (stereo not shown) [Trolox, reference compound]	92

AAPH inhibition (%, at 100 µM) for CCOC(=O)CNC(=O)/C=C/c1cc(OC)ccc1OC [Compound 19a] is 89

AAPH inhibition (%, at 100 µM) for CCOC(=O)CNC(=O)/C=C/c1cccc(Oc2ccccc2)c1 [Compound 12a] is 48

AAPH inhibition (%, at 100 µM) for `O=C(O)/C=C/c1cccc2ccccc12` is 78

AAPH inhibition (%, at 100 µM) for COC(=O)CC[C@H](NC(=O)/C=C/c1ccccc1)C(=O)OC [Compound 22c] is 39

AAPH inhibition (%, at 100 µM) for COC(=O)CCCNC(=O)/C=C/C=C/c1ccccc1 [Compound 23b] is 78

AAPH inhibition (%, at 100 µM) for CCOC(=O)CNC(=O)/C=C/c1ccc(O)cc1 [Compound 25a] is 39

AAPH inhibition (%, at 100 µM) for CCOC(=O)CNC(=O)/C=C/c1ccc(OCc2ccc(Br)cc2)cc1 [Compound 11a] is 38

AAPH inhibition (%, at 100 µM) for CCOC(=O)CNC(=O)/C=C/c1ccc(OC)c(OC)c1 [Compound 18a] is 99

* * *

# Test target: soybean lipoxygenase (LOX-1) (Glycine max, UniProt P08170)
# Construct: purchased Sigma Chemical, Co. (St Louis, MO, USA)
# Assay remarks: Soybean lipoxygenase inhibition study
# Assay type: biochemical
# Condition description: read-out: LOX inhibition (IC50)
Measured endpoint: pIC50
Interpret pIC50 as the negative base-10 log of the concentration measured in mol/L.

Compound	Test target	pIC50
COC(=O)CCCNC(=O)/C=C/c1ccc(O)c(OC)c1 [Compound 24b]	soybean lipoxygenase (LOX-1) (Glycine max, UniProt P08170)	4.00

Attention now turns to another entry.
pIC50 for COc1ccc(OC)c(/C=C/C(=O)O)c1 [Compound 19] is 4.22

* * *

# Test target: ovine COX-2 (Ovis aries, UniProt P79208)
# Construct: purchased Cayman (USA)
# Assay remarks: Cyclooxygenase-2 inhibition study
# Format: biochemical
# Condition description: read-out: COX-2 inhibition (IC50)
# Description: The in vitro study of cyclooxygenase (COX) activity was determined by using arachidonic acid (AA) as the substrate and N,N,N’,N’-tetramethylphenylenediamine (TMPD) as the co-substrate. […] The absorption due to the spontaneous oxidation of TMPD was subtracted from the initial rate of oxidation observed in the presence of AA. […] A blank determination was used first to serve as a negative control. Indomethacin was used as a reference COX-2 inhibitor (positive control). […]
Measured endpoint: IC50 (µM)
Write the number in µM without appending the unit.

Compound	IC50 / µM
CCOC(=O)CNC(=O)/C=C/c1ccc(OCc2ccc(Br)cc2)cc1 [Compound 11a]	6

IC50 for COC(=O)CC[C@H](NC(=O)/C=C/c1ccc(F)cc1)C(=O)OC [Compound 27c] is 72.5

IC50 for CCOC(=O)CNC(=O)/C=C/c1ccc(Cl)cc1 [Compound 16a] is 63

* * *

# Test target: soybean lipoxygenase (LOX-1) (Glycine max, UniProt P08170)
# Construct: purchased Sigma Chemical, Co. (St Louis, MO, USA)
# Assay remarks: Soybean lipoxygenase inhibition study
# Format: biochemical
# Condition description: % inhibition at 100 µM
Parameter LOX inhibition (%): see the listing below.
Write the number in % without appending the unit.

LOX inhibition (%) for CCOC(=O)CNC(=O)/C=C/c1cccc(Oc2ccccc2)c1 [Compound 12a] is 36

LOX inhibition (%) for CCOC(=O)CNC(=O)/C=C/c1ccc(C(F)(F)F)cc1 [Compound 13a] is 31

LOX inhibition (%) for COC(=O)CCCNC(=O)/C=C/c1ccc(Br)cc1 [Compound 14b] is 12

LOX inhibition (%) for COC(=O)CC[C@H](NC(=O)/C=C/c1ccc(F)cc1)C(=O)OC [Compound 27c] is 8

LOX inhibition (%) for CCOC(=O)CNC(=O)/C=C/c1ccccc1 [Compound 22a] is 0

LOX inhibition (%) for COC(=O)CCCNC(=O)/C=C/c1ccc(OC)c(OC)c1 [Compound 18b] is 40

LOX inhibition (%) for CCOC(=O)CNC(=O)/C=C/c1cc(OC)ccc1OC [Compound 19a] is 28

LOX inhibition (%) for COC(=O)CC[C@H](NC(=O)/C=C/c1cc(OC)ccc1OC)C(=O)OC [Compound 19c] is 7

LOX inhibition (%) for COC(=O)CC[C@H](NC(=O)/C=C/c1ccc2c(c1)OCO2)C(=O)OC [Compound 20c] is 19

LOX inhibition (%) for COC(=O)CCCNC(=O)/C=C/c1ccc(OCc2ccc(Br)cc2)cc1 [Compound 11b] is 30

* * *

# Test target: soybean lipoxygenase (LOX-1) (Glycine max, UniProt P08170)
# Construct: purchased Sigma Chemical, Co. (St Louis, MO, USA)
# Sequence (P08170 1-839): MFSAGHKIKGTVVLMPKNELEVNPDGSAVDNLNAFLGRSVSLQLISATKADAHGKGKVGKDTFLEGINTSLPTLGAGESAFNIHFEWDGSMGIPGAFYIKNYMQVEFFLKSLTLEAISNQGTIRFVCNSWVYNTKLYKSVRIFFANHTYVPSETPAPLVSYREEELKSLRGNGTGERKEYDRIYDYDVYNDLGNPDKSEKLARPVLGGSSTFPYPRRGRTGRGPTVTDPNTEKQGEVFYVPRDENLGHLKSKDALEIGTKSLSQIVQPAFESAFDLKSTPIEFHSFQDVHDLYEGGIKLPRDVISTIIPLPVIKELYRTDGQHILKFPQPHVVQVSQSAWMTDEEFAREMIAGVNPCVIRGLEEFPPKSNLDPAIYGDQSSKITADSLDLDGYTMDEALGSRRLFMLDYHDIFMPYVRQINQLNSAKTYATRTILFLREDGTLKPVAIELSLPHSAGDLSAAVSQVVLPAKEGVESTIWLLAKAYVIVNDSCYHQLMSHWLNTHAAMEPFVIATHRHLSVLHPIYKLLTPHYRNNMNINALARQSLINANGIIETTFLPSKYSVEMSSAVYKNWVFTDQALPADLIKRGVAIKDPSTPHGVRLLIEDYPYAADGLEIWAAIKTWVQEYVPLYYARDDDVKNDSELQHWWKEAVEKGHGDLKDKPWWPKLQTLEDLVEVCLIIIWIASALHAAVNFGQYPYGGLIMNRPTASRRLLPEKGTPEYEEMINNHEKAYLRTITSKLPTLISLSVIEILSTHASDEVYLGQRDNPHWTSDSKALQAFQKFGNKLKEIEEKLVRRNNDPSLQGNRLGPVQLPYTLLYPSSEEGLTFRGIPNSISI
# Assay remarks: Soybean lipoxygenase inhibition study
# Type: biochemical
# Condition description: read-out: LOX inhibition (%)
Measured endpoint: inhibition at 100 µM (%)
Write the number in % without appending the unit.

inhibition at 100 µM for CC(=O)Oc1ccc(/C=C/C(=O)O)cc1 [Compound 30, (E)-3-(4-acetoxyphenyl) acrylic acid] is 23

inhibition at 100 µM for `O=C(O)/C=C/c1ccc2c(c1)OCO2` is 27

inhibition at 100 µM for `N#Cc1ccc(/C=C/C(=O)O)cc1` is 27

inhibition at 100 µM for `O=C(O)/C=C/c1ccc(C(F)(F)F)cc1` is 42

inhibition at 100 µM for `CC1(C)Oc2ccc(/C=C/C(=O)O)cc2O1` is 46
